Assignment: determine reported pIC50 for the given sequences.
assay system: HLA-A*02:01
experimental details: IEDB peptide-MHC binding, purified MHC/competitive/fluorescence; bounds were set here for any values at or beyond the usual limits of such assays
conditions used: source organism: Sudan ebolavirus
The read-out pIC50 is expressed as -log10 of concentration in moles per litre.

# input Check HLA-A*02:01 data and give pIC50 for `TTGRLIWTL` .
# output 5.70

# input Check HLA-A*02:01 data and give pIC50 for `EGIYTEGLM` .
# output 4.48

# input Check HLA-A*02:01 data and give pIC50 for `FLYDRLAST` .
# output 6.05

# input Check HLA-A*02:01 data and give pIC50 for `GLITSTVTG` .
# output 4.91

###

assay system: HLA-A*30:02
experimental details: IEDB peptide-MHC binding, purified MHC/competitive/radioactivity; filed as Kd, often an IC50 or EC50 that approximates it; bounds were set here for any values at or beyond the usual limits of such assays
conditions used: source organism: Dengue virus 3 Singapore/8120/1995
measurement kind: Kd (nM)
Give the value in nM but do not write nM after it.

# input Supply measured Kd of `VTTWEDVPY` in your reply.
# output 248

###

assay system: HLA-B*08:01
experimental details: IEDB peptide-MHC binding, purified MHC/competitive/radioactivity; filed as Kd, often an IC50 or EC50 that approximates it; bounds were set here for any values at or beyond the usual limits of such assays
conditions used: source organism: Dengue virus 3 Martinique/1243/1999
measurement kind: pKd
The read-out pKd is expressed as -log10 of concentration in moles per litre.

# input Supply measured pKd of `LLLMRTSWA` in your reply.
# output 7.99

# input Supply measured pKd of `TKKVRTNAA` in your reply.
# output 7.36

# input Supply measured pKd of `EKEENMVKSL` in your reply.
# output 4.97

# input Supply measured pKd of `LGRNKKPRL` in your reply.
# output 6.58

###

assay system: HLA-A*03:01
experimental details: IEDB peptide-MHC binding, purified MHC/competitive/fluorescence; filed as Kd, often an IC50 or EC50 that approximates it; bounds were set here for any values at or beyond the usual limits of such assays
conditions used: source organism: Escherichia coli 536
measurement kind: Kd

# input Supply measured Kd of `VTVVAVPLR` in your reply.
# output ≥ 20 µM

###

assay system: HLA-A*03:01
experimental details: IEDB peptide-MHC binding, purified MHC/competitive/radioactivity; filed as Kd, often an IC50 or EC50 that approximates it; bounds were set here for any values at or beyond the usual limits of such assays
conditions used: source organism: Vaccinia virus WR
measurement kind: Kd (nM)
Give the value in nM but do not write nM after it.

# input Check HLA-A*03:01 data and give Kd for `KIMSIGFEAR` .
# output 175

# input Check HLA-A*03:01 data and give Kd for `LLAISAVYFK` .
# output 3.35

# input Check HLA-A*03:01 data and give Kd for `KATTQIAPK` .
# output 46

# input Check HLA-A*03:01 data and give Kd for `HAKYMVTDK` .
# output 452

# input Check HLA-A*03:01 data and give Kd for `LLSIVVDINK` .
# output 485

# input Check HLA-A*03:01 data and give Kd for `ILSKWHTSAR` .
# output 36.3

# input Check HLA-A*03:01 data and give Kd for `NSEYIESKAK` .
# output 5890

# input Check HLA-A*03:01 data and give Kd for `TLSERISSK` .
# output 6.16

# input Check HLA-A*03:01 data and give Kd for `ILRNYLRLY` .
# output 648

# input Check HLA-A*03:01 data and give Kd for `PLHILASNK` .
# output 161

# input Check HLA-A*03:01 data and give Kd for `DAYNIADAAR` .
# output 16000

# input Check HLA-A*03:01 data and give Kd for `KSTQSVLCVK` .
# output 60.7

# input Check HLA-A*03:01 data and give Kd for `RVMANNVKK` .
# output 17.2

# input Check HLA-A*03:01 data and give Kd for `RLNNPVILSK` .
# output 11.7

# input Check HLA-A*03:01 data and give Kd for `FIHMVRCCK` .
# output 267

# input Check HLA-A*03:01 data and give Kd for `SIRPRVTKQY` .
# output 884

# input Check HLA-A*03:01 data and give Kd for `MLIFNVKSK` .
# output 228

# input Check HLA-A*03:01 data and give Kd for `FLELKRGIYK` .
# output 4.84
